Cited source for all entries: patent US20150250786A1

Assay: Pharmacokinetics and brain bio-distribution in mice
Format: in vivo, mouse
Settings: mouse, plasma, intraperitoneal; read-out: plasmatic half-life

{"columns": ["smiles_string", "endpoint_unit", "half-life"],
 "data": [
  ["O=C(NO)c1cnc(NC2(c3ccccc3)CC2)nc1", "min", 12],
  ["O=C(NO)c1cnc(NC2(c3cccc(F)c3)CCCCC2)nc1", "min", 12]
]}

====

Test: Pharmacokinetics and brain bio-distribution in mice
Assay type: in vivo, mouse
Conditions: C57BL/6J, mouse, plasma, intraperitoneal, 50 mg/kg; read-out: 30 min plasma concentration (ng/ml) - 50 mg/kg

{"columns": ["smiles_string", "concentration at 30 min (ng/mL)"],
 "data": [
  ["O=C(NO)c1cnc(NC2(c3cccc(F)c3)CCCCC2)nc1", 1360],
  ["O=C(NO)c1cnc(NC2(c3ccccc3)CC2)nc1", 515]
]}
